- Experimental system: PI3Kα (wild-type), P110/P85α (Homo sapiens)
- Assay summary: PI3 Kinase TR-FRET assay, PI3Kα (wild-type)
Provide the reported IC50 of each item.

Form: compound = `CN(C)[C@@H]1CCN(C(=O)c2ccc(NC(=O)Nc3ccc(-c4nc(N5CCOCC5)c5cc(F)c(-c6cccnc6)cc5n4)cc3)cc2)C1` ; IC50 = < 50 nM

Form: compound = `Cc1ccc(-c2ccc3c(N4CCOCC4)nc(-c4ccc(NC(=O)Nc5ccc(C(=O)N(C)C)cc5)cc4F)nc3c2)cn1` ; IC50 = < 50 nM

Form: compound = `CN(C)C(=O)c1ccc(NC(=O)Nc2ccc(-c3nc(N4CCOCC4)c4ccc(-c5cnc(N(C)C)nc5)cc4n3)cc2)cc1` ; IC50 = < 50 nM

###

Provide the reported IC50 of each item.
- Experimental system: PI3Kα (wild-type), P110/P85α (Homo sapiens, UniProt P42336)
- Sequence (P42336 whole entry): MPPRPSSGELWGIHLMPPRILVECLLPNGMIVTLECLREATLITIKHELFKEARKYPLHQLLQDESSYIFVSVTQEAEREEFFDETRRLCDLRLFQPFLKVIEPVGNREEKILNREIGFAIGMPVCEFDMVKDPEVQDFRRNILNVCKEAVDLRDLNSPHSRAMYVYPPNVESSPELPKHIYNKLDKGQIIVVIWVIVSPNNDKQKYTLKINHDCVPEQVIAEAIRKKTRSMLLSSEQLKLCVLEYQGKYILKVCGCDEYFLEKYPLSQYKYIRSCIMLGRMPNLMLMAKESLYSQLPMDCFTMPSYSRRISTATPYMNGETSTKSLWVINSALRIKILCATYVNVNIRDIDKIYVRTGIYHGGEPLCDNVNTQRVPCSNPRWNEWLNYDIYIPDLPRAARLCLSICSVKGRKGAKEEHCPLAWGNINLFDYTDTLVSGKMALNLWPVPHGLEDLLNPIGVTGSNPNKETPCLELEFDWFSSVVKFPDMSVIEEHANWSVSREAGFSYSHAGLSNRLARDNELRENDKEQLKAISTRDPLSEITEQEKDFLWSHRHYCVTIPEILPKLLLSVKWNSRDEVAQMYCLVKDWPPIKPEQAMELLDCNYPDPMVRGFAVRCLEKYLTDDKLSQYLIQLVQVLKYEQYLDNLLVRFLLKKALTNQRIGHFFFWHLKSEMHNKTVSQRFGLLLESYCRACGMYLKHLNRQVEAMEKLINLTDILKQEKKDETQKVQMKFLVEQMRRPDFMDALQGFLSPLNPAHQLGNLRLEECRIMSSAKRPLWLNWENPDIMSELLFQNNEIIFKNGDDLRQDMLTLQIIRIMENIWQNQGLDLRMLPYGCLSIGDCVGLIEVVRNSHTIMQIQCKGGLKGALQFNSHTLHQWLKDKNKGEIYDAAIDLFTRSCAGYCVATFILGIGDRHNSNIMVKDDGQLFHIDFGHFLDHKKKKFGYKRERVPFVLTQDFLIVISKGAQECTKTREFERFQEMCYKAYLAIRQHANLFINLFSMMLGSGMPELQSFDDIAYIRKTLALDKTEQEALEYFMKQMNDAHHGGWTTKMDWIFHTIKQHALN
- Sequence (P27986 whole entry partner): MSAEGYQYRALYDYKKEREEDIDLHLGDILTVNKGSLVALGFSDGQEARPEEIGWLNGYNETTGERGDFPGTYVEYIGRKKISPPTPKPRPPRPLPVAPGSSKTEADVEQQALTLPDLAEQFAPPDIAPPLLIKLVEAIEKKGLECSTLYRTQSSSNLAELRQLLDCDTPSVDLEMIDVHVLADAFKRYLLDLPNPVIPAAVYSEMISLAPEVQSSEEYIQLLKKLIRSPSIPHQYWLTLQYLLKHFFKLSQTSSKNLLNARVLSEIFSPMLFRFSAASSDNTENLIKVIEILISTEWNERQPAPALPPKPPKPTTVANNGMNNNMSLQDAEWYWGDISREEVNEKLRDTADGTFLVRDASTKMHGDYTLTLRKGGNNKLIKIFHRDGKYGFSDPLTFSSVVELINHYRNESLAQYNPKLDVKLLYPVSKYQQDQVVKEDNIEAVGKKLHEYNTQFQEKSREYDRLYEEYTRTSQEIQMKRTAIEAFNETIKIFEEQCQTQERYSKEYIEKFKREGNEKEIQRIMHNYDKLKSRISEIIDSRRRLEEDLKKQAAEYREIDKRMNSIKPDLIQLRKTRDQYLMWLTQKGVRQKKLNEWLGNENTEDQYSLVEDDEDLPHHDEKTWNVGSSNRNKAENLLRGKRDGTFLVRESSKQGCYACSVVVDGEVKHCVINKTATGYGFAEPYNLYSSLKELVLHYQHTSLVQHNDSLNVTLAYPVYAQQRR
- Assay summary: PI3 Kinase TR-FRET assay, PI3Kα (wild-type)

Form: compound = `Cc1ccc(-c2cccc3c(N4CCOCC4)nc(-c4ccc(NC(=O)Nc5ccc(C(=O)N(C)C)cc5)cc4)nc23)o1` ; IC50 = 50 to 200 nM

Form: compound = `CN(C)C(=O)c1ccc(NC(=O)Nc2ccc(-c3nc(N4CCOCC4)c4ccc(-c5cnn(C)c5)cc4n3)cc2F)cc1` ; IC50 = < 50 nM

Form: compound = `CN(C)C(=O)c1ccc(NC(=O)Nc2ccc(-c3nc(N4CCOCC4)c4ccc(-c5ccc(CO)o5)cc4n3)cc2)cc1` ; IC50 = < 50 nM

Form: compound = `CN(C)C(=O)c1ccc(NC(=O)Nc2ccc(-c3nc(N4CCOCC4)c4ccc(-c5cncnc5)cc4n3)cc2F)cc1` ; IC50 = 50 to 200 nM

Form: compound = `CN(C)C(=O)c1ccc(NC(=O)Nc2ccc(-c3nc(N4CCOCC4)c4ccc(-c5cccc(S(C)(=O)=O)c5)cc4n3)cn2)cc1` ; IC50 = < 50 nM

Form: compound = `Cn1cc(-c2cnc3c(N4CCOCC4)nc(-c4ccc(NC(=O)Nc5ccc(C(N)=O)cc5)cc4)nc3c2)cn1` ; IC50 = < 50 nM

Form: compound = `CN(C)C(=O)c1ccc(NC(=O)Nc2ccc(-c3nc(N4CCOCC4)c4cc(F)c(-c5cccnc5)cc4n3)cc2F)cc1` ; IC50 = 50 to 200 nM

###

- Experimental system: PI3Kα (wild-type), P110/P85α (Homo sapiens)
- Assay summary: PI3 Kinase TR-FRET assay, PI3Kα (wild-type)
pIC50: −log10 of the molar value.
Reported metric: pIC50

Form: item COc1ncc(-c2ccc3c(N4CCOCC4)nc(-c4ccc(NC(=O)Nc5ccc(C(=O)N(C)C)cc5)c(F)c4)nc3c2)cn1 [Example 105] ; test system PI3Kα (wild-type), P110/P85α (Homo sapiens); pIC50: 6.70 to 7.30

Form: item CN(C)C(=O)c1ccc(NC(=O)Nc2ccc(-c3nc(N4CCOCC4)c4ccc(-c5ccc(C(=O)O)o5)cc4n3)cc2)cc1 [Example 10] ; test system PI3Kα (wild-type), P110/P85α (Homo sapiens); pIC50: > 7.30

Form: item CN(C)C(=O)c1ccc(NC(=O)Nc2ccc(-c3nc(N4CCOCC4)c4ccc(-c5ccco5)cc4n3)cc2)c(Cl)c1 [Example 171] ; test system PI3Kα (wild-type), P110/P85α (Homo sapiens); pIC50: 5.00 to 6.70

Form: item CN(C)C(=O)c1ccc(NC(=O)Nc2ccc(-c3nc(N4CCOCC4)c4ccc(-c5ccco5)cc4n3)cc2F)cc1 [Example 114] ; test system PI3Kα (wild-type), P110/P85α (Homo sapiens); pIC50: 6.70 to 7.30

Form: item CN(C)C(=O)c1ccc(NC(=O)Nc2ccc(-c3nc(N4CCOCC4)c4cc(F)c(-c5cncnc5)cc4n3)cc2)cc1 [Example 30] ; test system PI3Kα (wild-type), P110/P85α (Homo sapiens); pIC50: > 7.30

Form: item CN(C)C(=O)c1ccc(NC(=O)Nc2ccc(-c3nc(N4CCOCC4)c4ccc(-c5ccc(CO)o5)cc4n3)cc2)cc1F [Example 278] ; test system PI3Kα (wild-type), P110/P85α (Homo sapiens); pIC50: > 7.30

Form: item CC(O)c1ccc(-c2ccc3c(N4CCOCC4)nc(-c4ccc(NC(=O)Nc5ccc(C(=O)N(C)C)cc5F)cc4)nc3c2)o1 (stereo not shown) [Example 227] ; test system PI3Kα (wild-type), P110/P85α (Homo sapiens); pIC50: 5.00 to 6.70

Form: item CN(C)Cc1ccc(-c2ccc3c(N4CCOCC4)nc(-c4ccc(NC(=O)Nc5ccc(C(=O)N(C)C)cc5)cc4)nc3c2)o1 [Example 190] ; test system PI3Kα (wild-type), P110/P85α (Homo sapiens); pIC50: 6.70 to 7.30

Form: item COc1ccc(-c2ccc3c(N4CCOCC4)nc(-c4ccc(NC(=O)Nc5ccc(C(=O)N(C)C)cc5F)cc4)nc3c2)cn1 [Example 170] ; test system PI3Kα (wild-type), P110/P85α (Homo sapiens); pIC50: > 7.30

Form: item CN(C)C1CCN(C(=O)c2ccc(NC(=O)Nc3ccc(-c4nc(N5CCOCC5)c5ncc(-c6cnn(C)c6)cc5n4)cc3F)cc2)C1 (stereo in doubt) [Example 210] ; test system PI3Kα (wild-type), P110/P85α (Homo sapiens); pIC50: > 7.30

Form: item Cc1ccncc1-c1ccc2c(N3CCOCC3)nc(-c3ccc(NC(=O)Nc4ccc(C(=O)N(C)C)cc4)c(F)c3)nc2c1 [Example 100] ; test system PI3Kα (wild-type), P110/P85α (Homo sapiens); pIC50: > 7.30

Form: item CN(C)C(=O)c1ccc(NC(=O)Nc2ccc(-c3nc(N4CCOCC4)c4ccc(CO)cc4n3)cc2)cc1 [Example 285] ; test system PI3Kα (wild-type), P110/P85α (Homo sapiens); pIC50: > 7.30

Form: item Cc1ccc(-c2ccc3c(N4CCOCC4)nc(-c4ccc(NC(=O)Nc5ccc(C(=O)N(C)C)cc5)c(F)c4F)nc3c2)o1 [Example 281] ; test system PI3Kα (wild-type), P110/P85α (Homo sapiens); pIC50: 5.00 to 6.70
